assay.system: Pax6 DNA-binding domain (BD-Pax6) (Mus musculus (B6), UniProt P63015 190-289)
Sequence (P63015 190-289): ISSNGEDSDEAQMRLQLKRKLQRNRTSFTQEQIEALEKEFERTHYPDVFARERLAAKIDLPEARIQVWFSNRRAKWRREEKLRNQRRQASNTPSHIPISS
assay.comment: EMSA; 10% glycerol, 20 mM HEPES pH 7.8, 45 mM KCl, 10 mM NaCl, 1 mM EDTA, 1 mM DTT, 0.2 ug/uL BSA, 0.1% NP-40, 50 ng poly-dIdC; 20 ng each GST protein; room temperature 30 min (heterodimers 4 C); 6% PAGE 0.25x TBE
test.settings: protein: recombinant; tags: GST (N-terminal, pGEX-6P-1); label: 32P-dCTP fill-in of the 5' (dG)5 overhangs of both strands (Methods; control probes are given with GGG)
metric: binding result

[
  {
    "binder": "99 (dsDNA) DNA 1: GGGGGATATAACAAGATAATCATTGTTTTGAATATTCCAAGGATTTCCCCC DNA 2: GGGGGAAATCCTTGGAATATTCAAAACAATGATTATCTTGTTATATCCCCC",
    "measured": "binds"
  },
  {
    "binder": "51 (dsDNA) DNA 1: GGGGGGTCCGGCTTTTGTTGATTTGCTTATCTATCCCCC DNA 2: GGGGGATAGATAAGCAAATCAACAAAAGCCGGACCCCCC",
    "measured": "binds"
  },
  {
    "binder": "120 (dsDNA) DNA 1: GGGGGTCCACACTCTATAATCTCACATTGTTTGGCACCCCCCC DNA 2: GGGGGGGTGCCAAACAATGTGAGATTATAGAGTGTGGACCCCC",
    "measured": "no binding"
  },
  {
    "binder": "54 (dsDNA) DNA 1: GGGGGAGGTGTTAAGTGTGGAGTCGTGAGAACAACAATCCAGATAGCCCCC DNA 2: GGGGGCTATCTGGATTGTTGTTCTCACGACTCCACACTTAACACCTCCCCC",
    "measured": "no binding"
  },
  {
    "binder": "28 (dsDNA) DNA 1: GGGGGAAAAAAGATTCTAATCTTTTTTGTGGTGGTGGCCCCC DNA 2: GGGGGCCACCACCACAAAAAAGATTAGAATCTTTTTTCCCCC",
    "measured": "no binding"
  },
  {
    "binder": "112 (dsDNA) DNA 1: GGGGGTGTGTTCATTTGTTTTTATTTTAGAAGGAGTCCCCC DNA 2: GGGGGACTCCTTCTAAAATAAAAACAAATGAACACACCCCC",
    "measured": "no binding"
  },
  {
    "binder": "27 (dsDNA) DNA 1: GGGGGCACACCTGTTTGTTTTCCACTTCACAGAGGAGGCATAGGAAACTCCCCC DNA 2: GGGGGAGTTTCCTATGCCTCCTCTGTGAAGTGGAAAACAAACAGGTGTGCCCCC",
    "measured": "no binding"
  },
  {
    "binder": "125 (dsDNA) DNA 1: GGGGGGGGATGCAATTGTCAGTCACCTTTCTTGAGCCTGTGGGACCCCC DNA 2: GGGGGTCCCACAGGCTCAAGAAAGGTGACTGACAATTGCATCCCCCCCC",
    "measured": "no binding"
  },
  {
    "binder": "29 (dsDNA) DNA 1: GGGGGAAAAACTTTTTGTTATTTCATTTTTATTAGTGGCCCCC DNA 2: GGGGGCCACTAATAAAAATGAAATAACAAAAAGTTTTTCCCCC",
    "measured": "no binding"
  }
]
